# IC50 annotations
target: human IDO1 (Homo sapiens); experiment: Assessment of human IDO-1 inhibitory activity in HEK cells (human IDO1/HEK293 cells, Ehrlich reagent, absorbance at 490 nm); format: cell-based; design: expressed in transfected cells; conditions: In Vitro Potency in the HEK Human IDO-1 Cellular Assay

The cases that follow already have their IC50 on record.
molecule="CCC(CC(=O)O)c1ccc(N2CCC[C@H]2C(C)(C)O)c(Nc2ccnc(N3CCOCC3)n2)c1 (single isomer, unassigned) [Example 832]" tested_system="human IDO1 (Homo sapiens)" value_measured="> 50 nM"
molecule="CCc1cnc(Nc2cc([C@@H](CC)CC(=O)O)ccc2N(CC)C2CCCCC2)nc1 (single isomer, unassigned) [Example 280]" tested_system="human IDO1 (Homo sapiens)" value_measured="> 50 nM"
molecule="Cc1ccc(NC(=O)Nc2cc(C(C)CC(=O)O)ccc2N(CC(C)C)C2CCOCC2)cc1 (single isomer, unassigned) [Example 965]" tested_system="human IDO1 (Homo sapiens)" value_measured="< 50 nM"
molecule="CCC(CC(=O)O)c1cc(F)c(N(CC(C)C)CC(C)C)c(Nc2ccc(F)cc2)c1 (single isomer, unassigned) [Example 116]" tested_system="human IDO1 (Homo sapiens)" value_measured="< 5 nM"
molecule="COCC(CC(=O)O)c1ccc(N(CC(C)C)C2CCCCC2)c(NC(=O)Nc2ccc(Cl)cc2F)c1 (single isomer, unassigned) [Example 985-2]" tested_system="human IDO1 (Homo sapiens)" value_measured="< 5 nM"

# context switch: different molecule, same IC50
Q. Please give measured IC50 of the following entry: CC(CC(=O)O)c1ccc(N2CCC[C@H]2C(C)(C)O)c(Nc2ccc(C#N)cc2)c1 (single isomer, unassigned) [Example 802]
A. > 50 nM

* * *

# pIC50 annotations
biological target: human IDO1 (Homo sapiens, UniProt P14902); test: Assessment of human IDO-1 inhibitory activity in HEK cells (human IDO1/HEK293 cells, Ehrlich reagent, absorbance at 490 nm); type: cell-based; design: expressed in transfected cells; settings: In Vitro Potency in the HEK Human IDO-1 Cellular Assay
Sequence (P14902 whole entry): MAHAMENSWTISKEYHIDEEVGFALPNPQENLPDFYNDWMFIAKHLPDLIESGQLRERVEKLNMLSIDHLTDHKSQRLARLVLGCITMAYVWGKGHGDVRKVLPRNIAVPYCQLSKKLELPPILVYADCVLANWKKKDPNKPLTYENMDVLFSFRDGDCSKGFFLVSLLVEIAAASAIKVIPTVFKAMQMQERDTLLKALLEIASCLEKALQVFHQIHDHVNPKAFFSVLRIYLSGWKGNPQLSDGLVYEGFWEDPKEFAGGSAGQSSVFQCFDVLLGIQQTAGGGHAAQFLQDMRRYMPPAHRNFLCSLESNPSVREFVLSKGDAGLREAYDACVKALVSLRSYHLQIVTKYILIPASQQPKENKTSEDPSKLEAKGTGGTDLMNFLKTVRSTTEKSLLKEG
pIC50: −log10 of the molar value.

Q. Please give measured pIC50 of the following entry: CCC(CC(=O)O)c1ccc(N(CC(C)C)C2CCCCC2)c(NC(=O)Cc2ccc(C)cc2)c1 (racemic) [Example 1084]
A. > 8.30

Q. Please give measured pIC50 of the following entry: CCC(CC(=O)O)c1ccc(N2CCC[C@@H]2COC)c(NC(=O)Cc2ccc(C)cc2)c1 (single isomer, unassigned) [Example 1145]
A. < 7.30

Q. Please give measured pIC50 of the following entry: CCOc1ccc(NC(=O)Nc2cc(C(CC)CC(=O)O)c(F)cc2N(CC(C)C)CC(C)C)cc1 (single isomer, unassigned) [Example 1133]
A. > 8.30

Q. Please give measured pIC50 of the following entry: CCC(CC(=O)O)c1cc(NC(=O)Nc2cc(C)no2)c(N(CC(C)C)C2CCCCC2)cc1F (single isomer, unassigned) [Example 1115]
A. > 8.30

* * *

# pIC50 annotations
biological target: UniProtKB P14902; assay: Assessment of human IDO-1 inhibitory activity in HEK cells (human IDO1/HEK293 cells, Ehrlich reagent, absorbance at 490 nm); type: cell-based; set-up: expressed in transfected cells; details: In Vitro Potency in the HEK Human IDO-1 Cellular Assay
pIC50: −log10 of the molar value.

The cases that follow already have their pIC50 on record.
molecule="CCC(CC(=O)O)c1ccc(N2CCC[C@H]2C(C)(C)O)c(Nc2cnc(OCC3CC3)nc2)c1 (single isomer, unassigned)" measured_property=pIC50 value_measured="< 7.30"
molecule="CCC(CC(=O)O)c1ccc(N2CCC[C@@H]2C(C)(C)O)c(NC(=O)Nc2ccc(Cl)cc2F)c1 (single isomer, unassigned)" measured_property=pIC50 value_measured="< 7.30"
molecule="CCOc1ncc(Nc2cc(C(CC)CC(=O)O)ccc2N(CC)C2CCCOC2)cn1 (single isomer, unassigned)" measured_property=pIC50 value_measured="> 8.30"
molecule="CCC(CC(=O)O)c1ccc(N(CC2CC2)C2CCOCC2)c(Nc2cnc(OC)nc2)c1 (single isomer, unassigned)" measured_property=pIC50 value_measured="> 8.30"
molecule="CCOc1ccc(CC(=O)Nc2cc(C(COC)CC(=O)O)cc(F)c2N(CC(C)C)CC(C)C)cc1 (single isomer, unassigned)" measured_property=pIC50 value_measured="> 7.30"

Q. Please give measured pIC50 of the following entry: CCC(CC(=O)O)c1cc(NC(=O)Nc2ccc(C)cc2)c(N(CC(C)C)CC(C)C)cc1F (single isomer, unassigned)
A. > 8.30

Q. Please give measured pIC50 of the following entry: CCOc1ccc(CC(=O)Nc2cc(C(CC(=O)O)C3CC3)ccc2N(CC(C)C)C2CCCCC2)cc1 (single isomer, unassigned)
A. > 8.30

Q. Please give measured pIC50 of the following entry: CCN(c1ccc(C(CC(=O)O)c2ccccc2)cc1Nc1ccc(Cl)cc1F)C1CCOCC1 (single isomer, unassigned)
A. > 7.30

Q. Please give measured pIC50 of the following entry: CC(CC(=O)O)c1ccc(N2CCC[C@H]2C(C)(C)O)c(Nc2ccc(F)cc2)c1 (single isomer, unassigned)
A. < 7.30

Q. Please give measured pIC50 of the following entry: CCC(CC(=O)O)c1ccc(N2CCC[C@H]2C(C)(C)O)c(NC(=O)Nc2ccc(F)cc2)c1 (single isomer, unassigned)
A. < 7.30

Q. Please give measured pIC50 of the following entry: Cc1cc(CC(=O)Nc2cc(C(CC(=O)O)C3CC3)ccc2N(CC(C)C)C2CCCCC2)no1 (single isomer, unassigned)
A. > 7.30

Q. Please give measured pIC50 of the following entry: COCC(CC(=O)O)c1ccc(N(CC(C)C)CC(C)C)c(NC(=O)Nc2ccc(Cl)cc2F)c1 (single isomer, unassigned)
A. > 8.30

Q. Please give measured pIC50 of the following entry: CCC(CC(=O)O)c1ccc(N(CC(C)C)C2CCCCC2)c(Nc2cnc(OC(C)C)nc2)c1 (single isomer, unassigned)
A. > 8.30

Q. Please give measured pIC50 of the following entry: COCC(CC(=O)O)c1cc(F)c(N(CC(C)C)C2CCCCC2)c(NC(=O)Cc2ccc(Cl)cc2F)c1 (single isomer, unassigned)
A. > 7.30

* * *

target: UniProtKB P14902; experiment: Assessment of human IDO-1 inhibitory activity in HEK cells (human IDO1/HEK293 cells, Ehrlich reagent, absorbance at 490 nm); type: cell-based; parameters: expressed in transfected cells; conditions: In Vitro Potency in the HEK Human IDO-1 Cellular Assay
pIC50: −log10 of the molar value.
Measured property: pIC50

Q. Please give measured pIC50 of the following entry: Cc1nc2ccc(Nc3cc(C(CC(=O)O)c4ccccc4)cc(F)c3N(CC(C)C)CC(C)C)cc2s1 (single isomer, unassigned)
A. < 7.30

Q. Please give measured pIC50 of the following entry: CCC(CC(=O)O)c1ccc(N2CC3CC2CN3Cc2ccccc2)c(NC(=O)Nc2ccc(C)cc2)c1 (single isomer, unassigned) [667 E2]
A. < 7.30

Q. Please give measured pIC50 of the following entry: CCC(CC(=O)O)c1cc(NC(=O)Nc2ccc3c(c2)OCO3)c(N(CC(C)C)CC(C)C)cc1F (single isomer, unassigned)
A. > 8.30

Q. Please give measured pIC50 of the following entry: Cc1ccc(NC(=O)Nc2cc(C(CC(=O)O)C3CC3)ccc2N(CC(C)C)C2CCOCC2)cc1 (single isomer, unassigned) [1202 E1]
A. > 8.30

Q. Please give measured pIC50 of the following entry: CCC(CC(=O)O)c1ccc(N(CC2CC2)C2CCOCC2)c(NC(=O)Nc2ccc(Cl)cc2F)c1 (single isomer, unassigned)
A. > 8.30

Q. Please give measured pIC50 of the following entry: CCC(CC(=O)O)c1ccc(N(CC(C)C)C2CCCCC2)c(NC(=O)Cc2ccc(C#N)cc2)c1 (racemic)
A. > 8.30

Q. Please give measured pIC50 of the following entry: CCN(c1ccc(C(CC(=O)O)c2ccccc2)cc1Nc1ccc(C#N)cc1)C1CCOCC1 (single isomer, unassigned)
A. > 8.30

Q. Please give measured pIC50 of the following entry: CCC(CC(=O)O)c1ccc(N2CCC[C@H]2C(C)(C)O)c(NC(=O)Nc2ccc(OC)cc2F)c1 (single isomer, unassigned)
A. < 7.30

Q. Please give measured pIC50 of the following entry: CCC(CC(=O)O)c1ccc(N(CCC(C)C)C2CCCCC2)c(NC(=O)Cc2ccc(F)cc2)c1 (racemic)
A. < 7.30

Q. Please give measured pIC50 of the following entry: CCC(CC(=O)O)c1cc(NC(=O)Nc2ccc3c(c2)OCO3)c(N(CC(C)C)C2CCCCC2)cc1F (single isomer, unassigned)
A. > 8.30

Q. Please give measured pIC50 of the following entry: COCC(CC(=O)O)c1ccc(N(CC(C)C)C2CCCCC2)c(NC(=O)Cc2ccc(Cl)cc2F)c1 (single isomer, unassigned)
A. > 8.30

Q. Please give measured pIC50 of the following entry: CCC(CC(=O)O)c1ccc(N(CC2CC2)C2CCOCC2)c(Nc2ccc3c(c2)OC(F)(F)O3)c1 (single isomer, unassigned)
A. > 8.30
